test system: HEK-293T; test: Incucyte cell viability with HEK293T; format: toxicity, cell-based; conditions: human, 18 h, 10 µM, compound concentration 10 uM, replicate number 1, timepoint 18 hours; note: filed as whole numbers so only -1 and 0 and 1 occur
Assignment: determine reported Growth Rate for the given compounds.
One number for each entry.

Query Growth Rate for N[C@@H](Cc1cc(I)c(Oc2ccc(O)c(I)c2)c(I)c1)C(=O)O 1

Query Growth Rate for Cn1nc(C(F)(F)F)cc1-c1cnc(N2CCc3cc(S(=O)(=O)Nc4c(F)cc(Cl)cc4F)cc(N4CCCC4=O)c32)nc1 0

Query Growth Rate for COc1cc2ncnc(Nc3ccc(F)c(Cl)c3)c2cc1NC(=O)/C=C/CN1CCCCC1 [DACOMITINIB ANHYDROUS] 0

Query Growth Rate for O=C(Cc1ccc(-c2ccc(OCCN3CCOCC3)cc2)cn1)NCc1ccccc1 0

Query Growth Rate for O=C(Nc1ccc(-c2ccnc(Nc3ccc(N4CCOCC4)cc3)n2)cc1)[C@@H]1CCCN1 0

For every record below, what is its Growth Rate?
1. CC(C)NC(=O)c1ccc(C#Cc2ccncc2)cn1
2. Cc1cn(-c2cc(NC(=O)c3ccc(C)c(Nc4nccc(-c5cccnc5)n4)c3)cc(C(F)(F)F)c2)cn1

0
1

---

system: Fibroblast; assay: Multiplex assay against human fibroblast; type: toxicity, cell-based; details: 12 h, 1 µM, compound concentration 1 uM, replicate 1
Mark Fulfilled only when Population Membrane Permeable-Phenotype (%) stays strictly below 8%. Values equal to the cut-off are Not fulfilled.

Confirm or reject: Population Membrane Permeable-Phenotype (%) of CNC(=O)c1ccc(Nc2nc(OC3CCCC3)c3c(-c4ccc5nc(C)oc5c4)c[nH]c3n2)c(OC)c1 lies strictly below 8% Not fulfilled

Confirm or reject: Population Membrane Permeable-Phenotype (%) of Cl.O=C(c1ccc(Nc2nccc(-c3cc4ccccc4s3)n2)cc1)N1CCC(N2CCCC2)CC1 lies strictly below 8% Fulfilled

Confirm or reject: Population Membrane Permeable-Phenotype (%) of O=C(Nc1ccc(-n2nc(-c3cccnc3)cc2C(F)(F)F)cn1)c1ccc(-c2ccccc2)c(F)c1 lies strictly below 8% Not fulfilled

Confirm or reject: Population Membrane Permeable-Phenotype (%) of CCCS(=O)(=O)c1nc(NC2CC2)cc(-c2ccc3c(ccn3C3CC(C)(C)NC(C)(C)C3)c2)n1 lies strictly below 8% Not fulfilled

***
Confirm or reject: Population Membrane Permeable-Phenotype (%) of Cn1nc(C(F)(F)F)cc1-c1cnc(N2CCc3cc(S(=O)(=O)Nc4c(F)cc(Cl)cc4F)cc(N4CCCC4=O)c32)nc1 lies strictly below 8% Not fulfilled

Confirm or reject: Population Membrane Permeable-Phenotype (%) of C=CCn1c(=O)c2cnc(Nc3ccc(N4CCN(C)CC4)cc3)nc2n1-c1cccc(C(C)(C)O)n1 lies strictly below 8% Fulfilled

---

Assignment: determine reported Population Mitochondria Different-Phenotype (%) for the given molecules.
tested on: U2OS; assay: Multiplex assay against U2OS; format: toxicity, cell-based; details: human, 48 h, 1 µM, compound concentration 1 uM, replicate 1
Answer with the figure and its unit, nothing else.

Use the examples below as a reference point.
Query Population Mitochondria Different-Phenotype (%) for CCN1CCN(Cc2ccc(Nc3ncc(F)c(-c4cc(F)c5nc(C)n(C(C)C)c5c4)n3)nc2)CC1.CS(=O)(=O)O 82%

Query Population Mitochondria Different-Phenotype (%) for O=C(Nc1ccc(Cl)cc1)Nc1cccc(-c2cccc(N3CCCC3)n2)c1 5%

Query Population Mitochondria Different-Phenotype (%) for O=C(Nc1ccc(-n2nc(-c3cccnc3)cc2C(F)(F)F)cn1)c1ccc(-c2ccccc2)c(F)c1 12%

Query Population Mitochondria Different-Phenotype (%) for Cc1cn(-c2cc(NC(=O)c3ccc(C)c(Nc4nccc(-c5cccnc5)n4)c3)cc(C(F)(F)F)c2)cn1 54%

Query Population Mitochondria Different-Phenotype (%) for O=C1N/C(=N/c2ccccc2F)S/C1=C\c1ccc(C(=O)O)cc1 14%

Query Population Mitochondria Different-Phenotype (%) for Cc1cc(C)c(S(=O)(=O)N(Cc2ccc(-c3cccc(S(C)(=O)=O)c3)cc2)Cc2ccc(C(F)(F)F)o2)c(C)c1 7%

Query Population Mitochondria Different-Phenotype (%) for Cl.O=c1c2cccn2c2ccccc2n1CCCN1CCC(c2ccc(Cl)cc2)CC1 17%

Query Population Mitochondria Different-Phenotype (%) for COc1cc(N2CCN(C)CC2)ccc1Nc1ncc2c(n1)N(C)c1ccccc1C(=O)N2C 5%

For every record below, what is its Population Mitochondria Different-Phenotype (%)?
1. CCc1cccc(CC)c1NC(=O)c1nn(C)c2c1CCc1cnc(Nc3ccc(C(=O)NC4CCN(C)CC4)cc3OC(F)(F)F)nc1-2
2. CN1C2CCC1CC(OC(c1ccc(F)cc1)c1ccc(F)cc1)C2.Cl (stereo unspecified)
3. C=C1/C(=C\C=C2/CCC[C@]3(C)[C@@H]([C@H](C)/C=C/[C@H](C)C(C)C)CC[C@@H]23)C[C@@H](O)C[C@@H]1O
4. CCOc1cc(C(=O)N2CCC(N3CCN(C)CC3)CC2)ccc1Nc1ncc2c(n1)N(C1CCCC1)c1ccccc1C(=O)N2C

["18%", "6%", "13%", "28%"]

For every record below, what is its Population Mitochondria Different-Phenotype (%)?
1. CN(C)C(=O)C(CCN1CCC(O)(c2ccc(Cl)cc2)CC1)(c1ccccc1)c1ccccc1.Cl [LOPERAMIDE HYDROCHLORIDE]
2. CNc1cc(Oc2cc(C(=O)Nc3cc(N4CCN(C)CC4)cc(C(F)(F)F)c3)ccc2C)ncn1
3. O=C(Nc1ccc(-c2ccnc(Nc3ccc(N4CCOCC4)cc3)n2)cc1)[C@@H]1CCCN1
4. O=C1NC(=O)C(c2cnc3ccccn23)=C1c1cn2c3c(cc(F)cc13)CN(C(=O)N1CCCCC1)CC2

["72%", "50%", "8%", "22%"]

---

tested on: Fibroblast; assay: Multiplex assay against human fibroblast; assay type: toxicity, cell-based; settings: 12 h, 1 µM, compound concentration 1 uM, replicate 2
readout: Population Membrane Permeable-Phenotype (%)
One number for each entry, in %.

Use the examples below as a reference point.
Query Population Membrane Permeable-Phenotype (%) for O=C(Nc1cccnn1)N1CCC(=Cc2cccc(Oc3ccc(C(F)(F)F)cn3)c2)CC1 25

Query Population Membrane Permeable-Phenotype (%) for S=C(NCCCc1c[nH]cn1)NCCCN(Cc1ccc(Cl)c(Cl)c1)c1ccc(Br)cn1 8

Query Population Membrane Permeable-Phenotype (%) for CCN1CCN(Cc2ccc(Nc3ncc(F)c(-c4cc(F)c5nc(C)n(C(C)C)c5c4)n3)nc2)CC1.CS(=O)(=O)O 8

Turning to the following compound.
Query Population Membrane Permeable-Phenotype (%) for CCOc1cc(C(=O)N2CCC(N3CCN(C)CC3)CC2)ccc1Nc1ncc2c(n1)N(C1CCCC1)c1ccccc1C(=O)N2C 4

---

tested on: U2OS; assay: Multiplex assay against U2OS; format: toxicity, cell-based; conditions: human, 24 h, 1 µM, compound concentration 1 uM, replicate 2
Assignment: determine reported Total Cell Count for the given compounds.
Numbers only.

Report Total Cell Count under test system U2OS for O=C(Nc1ccc(Cl)cc1)Nc1cccc(-c2cccc(N3CCCC3)n2)c1 . 94

For every record below, what is its Total Cell Count?
1. COc1ccc(S(=O)(=O)N(CCO)c2ccccc2CN(C)C/C=C/c2ccc(Cl)cc2)cc1.O=P(O)(O)O
2. COc1cc2ncnc(Nc3ccc(F)c(Cl)c3)c2cc1NC(=O)/C=C/CN1CCCCC1 [DACOMITINIB ANHYDROUS]
3. COc1ccc(-c2ccc3c(N4CCOCC4)nc(N4C[C@@H](C)O[C@@H](C)C4)nc3n2)cc1CO [Ku-0063794]
4. CNc1cc(Oc2cc(C(=O)Nc3cc(N4CCN(C)CC4)cc(C(F)(F)F)c3)ccc2C)ncn1
5. S=C(NCCCc1c[nH]cn1)NCCCN(Cc1ccc(Cl)c(Cl)c1)c1ccc(Br)cn1

1. 137
2. 158
3. 93
4. 58
5. 79

For every record below, what is its Total Cell Count?
1. O=C(Cc1ccc(-c2ccc(OCCN3CCOCC3)cc2)cn1)NCc1ccccc1 [TIRBANIBULIN]
2. CCn1cc(-c2ccnc3[nH]c(-c4cccc(CN(C)C)c4)cc23)c(-c2ccc(NC(=O)N(C)C)cc2)n1 [GSK-1070916]

1: 155; 2: 92

---

Assignment: determine reported Growth Rate for the given molecules.
system: U2OS; test: Incucyte cell viability with U2OS; assay type: toxicity, cell-based; details: human, 6 h, 10 µM, compound concentration 10 uM, replicate number 2, timepoint 6 hours; note: filed as whole numbers so only -1 and 0 and 1 occur
Give bare numbers.

Report Growth Rate under test system U2OS for O=S(=O)(NC1CCC(c2cc(F)ccc2F)(S(=O)(=O)c2ccc(Cl)cc2)CC1)C(F)(F)F (centres undefined) . 0

Report Growth Rate under test system U2OS for CN1CCN(c2cnc3c(C4CCN(C(=O)c5ccc(OC(F)(F)F)cc5N)CC4)ncnc3c2)CC1 . 1

Report Growth Rate under test system U2OS for COc1cc2c(CCNC(C)=O)c[nH]c2cc1Cl . 1

Report Growth Rate under test system U2OS for Cc1oncc1C(=O)Nc1ccc(C(F)(F)F)cc1 [LEFLUNOMIDE] . 1

Report Growth Rate under test system U2OS for COC(=N)c1nc2ccc3ncnc(Nc4ccc(OC)cc4F)c3c2s1 . 1

For every record below, what is its Growth Rate?
1. O=C1O[C@]2(CC[C@H](C(=O)Nc3ccn(-c4ccccc4F)n3)CC2)c2cnccc21
2. COc1ccnc(N2CCC3(CCCN(Cc4c[nH]c5ccccc45)C3=O)CC2)n1

1
0

For every record below, what is its Growth Rate?
1. NC(CCP(=O)(O)O)C(=O)O (racemic)
2. Cc1nc(-c2ccc(C(F)(F)F)cc2)sc1COc1ccc([C@H](CC(=O)O)c2ccon2)cc1

1: 0; 2: 0
